Taken from patent US20150315211A1.

tested on: MCL-1ΔNΔC; test: High-throughput competitive FP binding screen, FITC-MCL-1 SAHB/MCL-1ΔNΔC interaction; settings: selectivity for MCL-1ΔNΔC over BCL-XLΔC targeting (BCL-XL % Bound minus MCL-1 % Bound)
The class of a record is decided solely by its measured Spec Values; consult 0: < 50; 1: ≥ 50 and < 60; 2: ≥ 60

Some solved cases for reference:
> print(dat)
                                   molecule  class.label
1  CCOc1cc(C(Nc2cccnc2)c2ccc3cccnc3c2O)ccc1O (centres unmarked) [drawing 145]            2
2                O=C(O)/C(S)=C\C=C\c1ccccc1            0
3                   O=C1NC(=S)C(=C2CCCC2)S1            1
4  O=C(c1ccccc1)c1ccc2nc(-c3ccco3)c(-c3ccco3)nc2c1            2
5  Cc1cs/c(=N\C2CCCCC2)n1/N=C/c1ccc(O)c(O)c1O            2
6    c1ccc(-c2ccc3c(c2)c2c4n3CCN=C4CCC2)cc1            0
7  C=CCN1C(=O)C(C#N)=C(C)/C(=C\c2ccc(-c3cccc(C(=O)O)c3)o2)C1=O            1

Please find the next molecule below.
In: Sort into band: COC(=O)c1c(N)sc2c1Cc1ccccc1C2
Out: 0

====

tested on: MCL-1ΔNΔC; experiment: High-throughput competitive FP binding screen, FITC-MCL-1 SAHB/MCL-1ΔNΔC interaction; settings: selectivity for MCL-1ΔNΔC over BCL-XLΔC targeting (BCL-XL % Bound minus MCL-1 % Bound)
hey, just use TRUE if measured Spec Values is less than 60, otherwise FALSE

Some solved cases for reference:
> print(dat)
                                   compound  class.label
1             c1cc(CNc2ccc(N3CCCC3)cc2)ccn1         TRUE
2  O=c1c(O)c(-c2cc(O)c(O)c(O)c2)oc2cc(O)cc(O)c12 [drawing 14]        FALSE
3  O=C(O)c1cccc(-c2ccc(CC3Sc4ccccc4C3=O)o2)c1 (centres unmarked)        FALSE
4  C=CCN1C(=O)/C(=C2/C(=O)Nc3ccccc32)c2ccccc21         TRUE
5  Cc1ccc(/C=C/C(=O)N2CCN(C(c3ccccc3)c3ccccc3)CC2)o1         TRUE

In: Regarding Oc1ccc(/C=N/c2cccc(C(F)(F)F)c2)c(O)c1 , kindly confirm whether its Spec Values is beneath 60.
Out: TRUE

In: Regarding O=C(NC(=S)NCc1ccccc1)C1CCCC1 , kindly confirm whether its Spec Values is beneath 60.
Out: TRUE

====

biological target: MCL-1ΔNΔC (Homo sapiens); test: High-throughput competitive FP binding screen, FITC-MCL-1 SAHB/MCL-1ΔNΔC interaction; design: the C-terminal alpha-helix was deleted from each of these constructs; GST (N, cleaved yes); made in house; details: FITC-MCL-1 SAHB/MCL-1ΔNΔC interaction pair, competitive FP screen
hey, just use label 1 if measured MCL-1% Bound is less than 30%, otherwise label 0

> print(dat)
                                   compound  class.label
1       C/C(=N\NC(=S)Nc1ccccc1C)c1ccc(O)cc1      label 0
2  CC1=C(C)C/S(=N\S(=O)(=O)c2ccc(Cl)cc2)N(S(=O)(=O)c2ccc(Cl)cc2)C1 (centres unmarked)      label 0
3      CN(C)/C=C1\SC(=S)N(c2ccc(Br)cc2)C1=O      label 0
4  O=C(CSc1nnc(-c2ccco2)c(-c2ccco2)n1)N1c2ccccc2Sc2ccc(Cl)cc21      label 0

In: Regarding Clc1cccc2c(N3CCCCCC3)cnnc12 , kindly confirm whether its MCL-1% Bound is beneath 30%.
Out: label 1

In: Regarding CC(C)C(C(=O)O)N1C(=O)/C(=C/C=C/c2ccco2)SC1=S (centres unmarked) , kindly confirm whether its MCL-1% Bound is beneath 30%.
Out: label 1

In: Regarding O=C(/C=C/c1ccco1)Nc1ccc(Br)cc1 , kindly confirm whether its MCL-1% Bound is beneath 30%.
Out: label 0

In: Regarding N#Cc1cc2c([nH]c1=S)CCC2 , kindly confirm whether its MCL-1% Bound is beneath 30%.
Out: label 0

In: Regarding CCOc1cc(/C=C(/C#N)c2cccc(Br)c2)ccc1OCc1ccc(C(=O)O)o1 , kindly confirm whether its MCL-1% Bound is beneath 30%.
Out: label 0

In: Regarding Oc1c(C(c2cccs2)N2CCCCC2)ccc2cccnc12 (centres unmarked) , kindly confirm whether its MCL-1% Bound is beneath 30%.
Out: label 1

====

target: MCL-1ΔNΔC (Homo sapiens, UniProt Q07820); test: High-throughput competitive FP binding screen, FITC-MCL-1 SAHB/MCL-1ΔNΔC interaction; set-up: the C-terminal alpha-helix was deleted from each of these constructs; GST (N, cleaved yes); made in house; conditions: FITC-MCL-1 SAHB/MCL-1ΔNΔC interaction pair, competitive FP screen
Sequence (Q07820 172-320 limits assumed, stated change not applied): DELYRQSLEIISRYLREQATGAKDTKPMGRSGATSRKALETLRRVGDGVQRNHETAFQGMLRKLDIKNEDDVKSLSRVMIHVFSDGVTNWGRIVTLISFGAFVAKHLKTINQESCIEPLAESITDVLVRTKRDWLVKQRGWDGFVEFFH
Listed next: entries and their corresponding MCL-1% Bound.
Number in %, nothing else.

Worked examples, 5 molecules total:
molecule	unit_tag	MCL-1% Bound
COC(=O)c1ccc(C(c2cc3c(cc2O)OCO3)N2CCN(c3ccccc3)CC2)cc1 (stereo not shown)	%	48.75
O=C(OCC1O[C@H](OC(=O)c2cc(O)c(O)c(OC(=O)c3cc(O)c(O)c(O)c3)c2)[C@H](OC(=O)c2cc(O)c(O)c(OC(=O)c3cc(O)c(O)c(O)c3)c2)[C@@H](OC(=O)c2cc(O)c(O)c(OC(=O)c3cc(O)c(O)c(O)c3)c2)[C@@H]1OC(=O)c1cc(O)c(O)c(OC(=O)c2cc(O)c(O)c(O)c2)c1)c1cc(O)c(O)c(OC(=O)c2cc(O)c(O)c(O)c2)c1 (stereo partly shown) [drawing 178]	%	15.94
Cc1ccc(CN(C)C(=O)c2ccccc2OCCOc2ccccc2)o1	%	68.8
O=C1NC(=O)/C(=C\c2cccc(C(F)(F)F)c2)S1	%	42.59
CCOc1cc(C(Nc2cccnc2)c2ccc3cccnc3c2O)ccc1O (stereo not shown) [drawing 145]	%	−0.3

In: Which measured MCL-1% Bound value corresponds to O=C(OCc1ccc(F)cc1)c1cc(-c2ccco2)nc2ccccc12 ?
Out: 21.94

In: Which measured MCL-1% Bound value corresponds to CC(C)c1ccc(C2=CC(=O)C=CC2=O)cc1 ?
Out: 6.516

In: Which measured MCL-1% Bound value corresponds to CCSC1=C(C#N)C(=O)NC(c2ccc(N(C)C)cc2)S1 (stereo not shown) ?
Out: 30.49

In: Which measured MCL-1% Bound value corresponds to CCOC(=O)c1c(N2C(=O)C3C4C=CC(O4)C3C2=O)sc2c1CCCC2 (stereo not shown) ?
Out: 48.27

In: Which measured MCL-1% Bound value corresponds to CCOc1cccc(CNc2ccc(N3CCCC3)cc2)c1 ?
Out: 34.93

In: Which measured MCL-1% Bound value corresponds to CC1=C(C#N)C(O)=NC(=O)/C1=C/c1ccc(-c2cccc(C(=O)O)c2)o1 ?
Out: 36.81

In: Which measured MCL-1% Bound value corresponds to CSc1sc(C(=O)/C=C/N(C)C)c(-c2cccs2)c1C#N ?
Out: −20.06

In: Which measured MCL-1% Bound value corresponds to Cc1cccc(CSc2ccc(-c3ccco3)nn2)c1 ?
Out: 44.76

In: Which measured MCL-1% Bound value corresponds to CC(C)Cn1c2ccc(Cl)cc2c2nc3ccccc3nc21 ?
Out: 32.32

In: Which measured MCL-1% Bound value corresponds to N=C1NC(=O)/C(=C2/C(=O)Nc3ccc(Br)cc32)S1 ?
Out: 50.06

In: Which measured MCL-1% Bound value corresponds to Cc1nc2sccn2c1-c1nc(-c2ccc(Br)o2)c(C(=O)c2ccc3c(c2)OCCO3)s1 ?
Out: 39.75

In: Which measured MCL-1% Bound value corresponds to Cc1occc1-c1nnc2n1N=C(c1ccc(-c3cc(Cl)ccc3Cl)o1)CS2 ?
Out: 22.98

In: Which measured MCL-1% Bound value corresponds to CCOC(=O)c1cc(C#N)c(SCC(=O)c2cc3ccccc3oc2=O)[nH]c1=O ?
Out: 31.28

In: Which measured MCL-1% Bound value corresponds to C=CCN1C(=O)C(C#N)=C(C)/C(=C\c2ccc(-c3cccc(C(=O)O)c3)o2)C1=O ?
Out: 31.43

====

biological target: BCL-XLΔC (Homo sapiens, UniProt Q07817); experiment: High-throughput competitive FP binding screen, FITC-BAD BH3/BCL-XLΔC interaction; conditions: FITC-BAD BH3/BCL-XLΔC interaction pair, competitive FP screen
Sequence (Q07817 1-212 limits assumed, stated change not applied): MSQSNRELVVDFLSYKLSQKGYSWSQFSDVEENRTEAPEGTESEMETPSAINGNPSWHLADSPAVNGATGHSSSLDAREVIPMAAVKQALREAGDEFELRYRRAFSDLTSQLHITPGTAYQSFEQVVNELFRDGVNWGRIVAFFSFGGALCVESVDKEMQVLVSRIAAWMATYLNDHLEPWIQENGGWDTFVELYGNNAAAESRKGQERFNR
metric: BCL-XL % Bound

Worked examples, 6 compounds total:
> print(dat)
                                   compound                      experimental.target  result
1     O=C1NC(=O)/C(=C\c2cccc(C(F)(F)F)c2)S1  BCL-XLΔC (Homo sapiens, UniProt Q07817)  94.16%
2  N#C/C(=C/c1cn(Cc2ccc(C(=O)O)o2)c2ccccc12)c1ccc(F)cc1  BCL-XLΔC (Homo sapiens, UniProt Q07817)  65.03%
3  CCSC1=C(C#N)C(=O)NC(c2ccc(O)cc2)S1 (stereo not shown)  BCL-XLΔC (Homo sapiens, UniProt Q07817)  84.82%
4  Cc1nc2sccn2c1-c1nc(-c2ccc(Br)o2)c(C(=O)c2ccc3c(c2)OCCO3)s1  BCL-XLΔC (Homo sapiens, UniProt Q07817)   93.3%
5  O=C1N/C(=N\c2ccc(F)cc2)S/C1=C/c1ccc(N2CCCCCC2)o1  BCL-XLΔC (Homo sapiens, UniProt Q07817)   87.8%
6  Cc1c(Cl)cccc1N1C(=O)CC(Sc2nnnn2-c2ccccc2)C1=O (stereo not shown)  BCL-XLΔC (Homo sapiens, UniProt Q07817)   97.5%

In: Item O=c1oc2ccccc2c2oc3cc(O)c(O)cc3c12 with BCL-XLΔC (Homo sapiens, UniProt Q07817) - BCL-XL % Bound?
Out: 84.9%

In: Item O=C(OCc1ccc(F)cc1)c1cc(-c2ccco2)nc2ccccc12 with BCL-XLΔC (Homo sapiens, UniProt Q07817) - BCL-XL % Bound?
Out: 101.6%

In: Item O=C(O)C1Nc2c(I)cccc2C2C=CCC12 (stereo not shown) with BCL-XLΔC (Homo sapiens, UniProt Q07817) - BCL-XL % Bound?
Out: 100.3%
